B1: TPR t1 (parent)
chain: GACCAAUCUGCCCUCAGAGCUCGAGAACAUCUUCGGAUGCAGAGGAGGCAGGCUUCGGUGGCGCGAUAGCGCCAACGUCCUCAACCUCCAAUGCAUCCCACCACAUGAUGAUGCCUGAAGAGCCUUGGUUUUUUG

- Variants of: B1
- Measurement Notes: polymerase ribozyme fitness, log enrichment relative to wild type (log ratio); higher = more active; in vitro selection for triplet polymerase activity
Quantity Name: polymerase ribozyme fitness (log ratio)
Field format: numeric only.

Study these solved cases before continuing.
> print(dat)
      variant.label  measured.result
1    C73U U78C U96A            -1.03
2  C13U C102U G117U            -3.38
3          C3A U78C           -0.717
4        C12U C104U            0.248
5          C8G G63A           -0.627

Data point: C72U A84U C101A C115U G127A G128C ; polymerase ribozyme fitness (log ratio) = -6.94

Data point: C123U C124A ; polymerase ribozyme fitness (log ratio) = 2.14

Data point: U14A A37U G52A U59C ; polymerase ribozyme fitness (log ratio) = -3.31

Data point: C8U C40U G51C G120C ; polymerase ribozyme fitness (log ratio) = -1.98

Data point: A2U C13A C73G ; polymerase ribozyme fitness (log ratio) = -5.15

Data point: C49G U55G ; polymerase ribozyme fitness (log ratio) = -1.16
